- Method Description: probe aXIP binding to arrayed compounds – biochemical, NeuroSMM set, 635/667 nm fluorescence, primary screen (AID 1119);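 also: probe is the protein aXip251-270 applied at 1 µg/mL to compound-printed slides; binding of probe to printed compounds measured as 667 nm fluorescence plus signal to noise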
- Measurement Conditions: small-molecule microarray, higher = more signal, called active from +8 up or from −8 down
Listed below: composite Z-score values for each entry.
# output: bare number, no unit

Use these answered entries as a reference point.
>  <Compound>
COCCOC(=O)N1C(=O)[C@@]2(c3cc(C#CCNC(N)=O)ccc31)[C@H](C(N)=O)[C@H]1C(=O)O[C@H](c3ccccc3)[C@H](c3ccccc3)N1[C@@H]2c1ccc(OCCO)cc1

>  <composite Z-score>
0.462

$$$$
>  <Compound>
OCc1ccc(-c2cc[n+](Cc3cccc(OC(F)(F)F)c3)cc2)cc1

>  <composite Z-score>
0.372

$$$$
>  <Compound>
COC(=O)[C@@]1(Cc2ccc(F)cc2)[C@@H]2[C@@H](CC(=O)[C@H]2CC(=O)C(=O)N2CCCC2)CN1C(=O)c1ccccc1

>  <composite Z-score>
0.304

$$$$
>  <Compound>
CC1C=C(CCCO)C=C(C(=O)OCCS(C)(=O)=O)C(C(=O)OCCS(C)(=O)=O)=CN1Cc1cccc(OC(F)(F)F)c1 (configuration not stated)

>  <composite Z-score>
-0.115

$$$$
>  <Compound>
COC(=O)[C@]1(Cc2ccccc2N=[N+]=[N-])N=C(c2ccc(OCCCO)cc2)O[C@@H]1c1ccccc1

>  <composite Z-score>
0.747

$$$$

Reported composite Z-score ( "[N-]=[N+]=NCc1ccccc1C[C@]1(C(=O)NCCN2CCOCC2)COC(c2ccc(OCCCO)cc2)=N1" ) = 0.689

GET /value?item= "CCCC[C@@H](O)C1=C(COc2ccccc2)Cn2c(=O)n(-c3ccccc3)c(=O)n2[C@H]1CO" &field=composite Z-score returns -0.116
